# Tested on: wheat
# assay: Test B pre/postemergence wheat
# Assay type: in vivo, Triticum aestivum
# test.parameters: Preemergence, Rate 500 g/ha; scale of 0 to 10 where 0 is no effect and 10 is complete control
The entries below come with measured Wheat plant response rating values attached.
quantity.measured: Wheat plant response rating

COC(=O)CCCn1c(=O)on(C(=O)N(c2ccc(Cl)cc2)C(C)C)c1=O ... 0
CC(C)=CCn1c(=O)on(C(=O)N(c2ccc(F)cc2F)C(C)C)c1=O ... 7
CCOC(=O)C(C)N(C(=O)n1oc(=O)n(C(C)C)c1=O)c1ccc(F)cc1 (centres unmarked) ... 0
COCCOCn1c(=O)on(C(=O)N(c2ccccc2)C(C)C)c1=O ... 7
CC(C)N(C(=O)n1oc(=O)n(C2CCCCCC2)c1=O)c1ccc(F)cc1 ... 0

====

# System: crabgrass
# assay: Test B pre/postemergence crabgrass
# Type: in vivo, Digitaria sanguinalis
# test.parameters: Rate 250 g/ha, Postemergence; scale 0 to 10, 0 is no effect, 10 is complete control
quantity.measured: Plant response rating, Crabgrass

CC(C)N(C(=O)n1oc(=O)n(N(C)c2ccccc2)c1=O)c1ccc(F)cc1 [Compound 177] ... 2
C=CCn1c(=O)on(C(=O)N(c2ccc(F)cc2)C(C)C)c1=O [Compound 146] ... 9
CC(C)N(C(=O)n1oc(=O)n(C)c1=O)c1ccc(Cl)cc1 [Compound 137] ... 9
Cc1ccc(N(C(=O)n2oc(=O)n(C(C)C)c2=O)C(C)C)cc1 [Compound 132] ... 8

====

The entries below come with measured Cocklebur plant response rating values attached.
# Test system: cocklebur
# assay: Test B pre/postemergence cocklebur
# Type: in vivo, Xanthium strumarium
# test.parameters: Postemergence, Rate 125 g/ha; scale of 0 to 10 where 0 is no effect and 10 is complete control
quantity.measured: Cocklebur plant response rating

COC1CCC(Cn2c(=O)on(C(=O)N(c3ccc(F)cc3)C(C)C)c2=O)=NO1 (centres unmarked) ... 0
CN(C(=O)n1oc(=O)n(Cc2ccccc2)c1=O)c1ccccc1 ... 0
COc1ccccc1Cn1c(=O)on(C(=O)N(c2ccc(F)cc2)C(C)C)c1=O ... 3
Cc1onc(-c2ccccc2)c1-n1c(=O)on(C(=O)N(c2ccc(F)cc2)C(C)C)c1=O ... 0
CC(C)N(C(=O)n1oc(=O)n(C(C)C)c1=O)c1ccc(F)cc1F ... 3

====

The entries below come with measured Rape plant response rating values attached.
# Test system: rape
# assay: Test B pre/postemergence rape
# Format: in vivo, Brassica napus
# test.parameters: Postemergence, Rate 62 g/ha; scale of 0 to 10, 0 is no effect, 10 is complete control
# Method: […] At the same time, these crop and weed species were also treated with postemergence applications of test chemicals formulated in the same manner. […] Treated plants and controls were maintained in a greenhouse for twelve to sixteen days, after which all species were compared to controls and visually evaluated. […]
quantity.measured: Rape plant response rating

Cc1noc(C)c1Cn1c(=O)on(C(=O)N(c2ccc(F)cc2F)C(C)C)c1=O [Compound 510] ... 1
CCCCCCn1c(=O)on(C(=O)N(c2ccccc2)C(C)C)c1=O [Compound 558] ... 0
COCCOCn1c(=O)on(C(=O)N(c2ccc(F)cc2F)C(C)C)c1=O [Compound 505] ... 0
COCn1c(=O)on(C(=O)N(c2ccccc2)C(C)C)c1=O [Compound 562] ... 0

Origin of measurements: patent US6737383B1
